- assay_explanation: small-molecule binders of probe aNOTCH3, primary screen, biochemical, small-molecule microarray, 635/667 nm fluorescence (AID 1120);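 further: probe is a biotin-tagged antibody raised against NOTCH3 rather than NOTCH3 protein; score merges spot fluorescence near 667 nm with spot signal to noise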
- measurement_parameters: higher = more signal
Parameter threshold = 0.03. Response is class 1 when composite z-score meets or exceeds it, else class 0.

Example results:
1. O=C1[C@H]2[C@H]3[C@H](O)[C@H](O)CC(=NOC[C@@H](O)COCc4ccco4)[C@H]3CC[C@H]2C(=O)N1Cc1ccc2c(c1)OCO2; class 0
2. CCCCC(=C=CC[C@H](O)c1ccccc1OCCO)C[C@H](O)COCc1ccccc1; class 0
3. CC1CC/C=C\[C@H]2OC34C=CCN(Cn5nnc6ccccc65)C(=O)[C@H]3N(CCO)C(=O)[C@@H]4C2C(=O)O1 (some centres not stated); class 0
4. Cc1cc2c(c(=O)o1)[C@H](O)[C@H]1O[C@H]1C2=O; class 1

INPUT: Is composite z-score at least 0.03? Consider COc1ccc(-c2ccc3c(n2)CCCN3CC(O)CN2CCCc3nc(C)c(C)cc32)cc1 (configuration not stated)
OUTPUT: class 1

----------
Measured composite z-score, listed per entry for reference.
- assay_explanation: compound binding in COS7 lysate, probe aLAP1, primary screen, cell lysate, small-molecule microarray (AID 1124);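 further: lysate comes from COS7 cells expressing LAP1 and is applied at 0.3 µg/mL; score merges spot fluorescence near 667 nm with signal-to-noise over triplicate slides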
- measurement_parameters: probe aLAP1, fluorescence, higher = more signal
Lab note: jot down the number only; don't add units.

Consider the worked cases shown below.
1) CO[C@@H]1COC(=O)CC=C[C@@H](C)[C@@H]2C=C[C@H](O)[C@@H](COC(=O)CCC[C@H]1C)O2; 0.0206
2) CCN1C(=O)[C@H]2[C@H]3[C@H](O)[C@H](O)CC(=NOCc4ccccc4)[C@H]3CC[C@H]2C1=O; 0.491
3) O=C1[C@H]2[C@H]3[C@H](O)[C@H](O)CC(=NOCc4ccccc4)[C@@H]3CC[C@H]2C(=O)N1C1CCCCC1; -0.785

Record CC(C)N1CC=CC23O[C@@H]4C=CCCOC(=O)C4[C@H]2C(=O)N(CCCCCCO)[C@@H]3C1=O (stereo partly drawn) . Reported composite z-score: 0.753

Record CC(C)(C)OC(=O)CC[C@]1(C(=O)NCc2ccccc2)N=C(c2ccc(OCCCO)cc2)O[C@H]1c1ccccc1 . Reported composite z-score: 0.378

Record CCN1C(=O)[C@H]2[C@H]3[C@H](O)[C@H](O)CC(=NOCc4ccccc4)[C@@H]3CC[C@H]2C1=O . Reported composite z-score: 1.74

Record COc1cccc([C@H]2Oc3ccc(OC)cc3C(=NOC(C)CN3CCCc4nc(C)c(C)cc43)[C@@H]2O)c1 (stereo partly drawn) . Reported composite z-score: 0.532

Record COCCCNC(=O)[C@]1(Cc2ccccc2)N=C(c2ccc(OCCCO)cc2)O[C@@H]1c1ccccc1 . Reported composite z-score: 0.401

----------
- test_system: Carbonic anhydrase 2 (Homo sapiens)
- assay_explanation: CAII small-molecule binders, profiling panel, biochemical, small-molecule microarray, Alexa647-labelled CAII (AID 1122)
- measurement_parameters: CAII-A647 binding fluorescence, higher = more signal
Parameter threshold = 0.5. Response is y when composite z-score meets or exceeds it, else n.

1. CCN1C(=O)[C@H]2[C@H]3[C@H](O)[C@H](O)CC(=NOCc4ccccc4)[C@H]3CC[C@H]2C1=O; n
2. Cc1cc(C)c(-c2cc([C@H](C)ON=C3[C@H]4CCn5c(=O)n(-c6ccccc6)c(=O)n5[C@H]4[C@H](O)[C@@H]4O[C@H]34)on2)c(C)c1; n
3. C#CCCCON=C1C[C@@H](O)[C@@H](O)[C@@H]2[C@@H]3C(=O)N(Cc4ccccc4)C(=O)[C@@H]3CC[C@H]12; n
4. COc1ccc([Si](C)(C)[C@H]2[C@H](CC(=O)N3CCC[C@H]3CO)O[C@@]3(C(=O)N(Cc4cccc(N5C(=O)COc6ccccc65)c4)c4ccccc43)[C@@H]2C)cc1; n
5. CCCCC(=C=CC[C@H](O)c1ccccc1OCCO)C[C@H](O)COCc1ccccc1; y
6. CCOC(=O)NN=C1C[C@@H](O)[C@@H](O)[C@@H]2[C@@H]3C(=O)N(C[C@@H]4CCCO4)C(=O)[C@@H]3CC[C@@H]12; n
7. O=C1C[C@]2(c3ccc([N+](=O)[O-])cc3)C(=O)N(CCN3CCOCC3)c3cc(CO)ccc3[C@H]2N1CC12CC3CC(CC(C3)C1)C2; n
8. CC(C)C[C@@H]1NC(=O)[C@H]2C[C@@H](C(=O)NCCCCCCN(C)C)[C@@H](c3cccc(OCCO)c3)N2C1=O; y

INPUT: Is composite z-score at least 0.5? Consider COC(=O)C1(C)C=C2C(=C(c3ccccc3)C(=O)C2C)CN1 (stereo not drawn)
OUTPUT: n

----------
- assay_explanation: MM1S myeloma cell viability, profiling panel, resazurin fluorescence, basal, 24 h, PK04 Diversity Set (AID 1174);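 further: MM1S multiple myeloma cell line; test concentration not given here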
- measurement_parameters: higher = more signal, called active from +8 up or from −8 down
Activity calls are given as the source filed them.
assay_metric: z-score

Consider the worked cases shown below.
1. CCCCCCc1nc(CCCc2cc3c(c(CCCCCC)n2)[Si](C(C)C)(C(C)C)O[C@H]3c2ccccc2)cc2c1[Si](C(C)C)(C(C)C)O[C@H]2c1ccccc1; -0.582 (inactive)
2. COc1ccc(-c2nc3c(c4c2C[C@H](C)OC4)CN(CCC(C)C)CC3)cc1; -0.145 (inactive)

Record COC(=O)C1=C(C)[C@@H](O)[C@@H](C)[C@H](c2c(OC)c(OC)c(C)c(OC)c2OC)O1 . Reported z-score: -0.46 (inactive)

Record CO[C@H]1COC(=O)[C@H](C)COC(=O)CC=C[C@@H](C)[C@H](OC)COC(=O)CC=C[C@@H]1C . Reported z-score: -0.152 (inactive)

Record CC(CCC(=O)OC[C@H]1O[C@H](C#Cc2ccccc2)C=C[C@@H]1Oc1ccc(C)cc1)=NO[C@@H](C)c1cn([C@H](CO)Cc2ccccc2)nn1 . Reported z-score: 0.925 (inactive)

----------
- test_system: Neurogenic locus notch homolog protein 2 (Homo sapiens) (UniProt Q04721)
- Sequence (Q04721 whole entry, looked up): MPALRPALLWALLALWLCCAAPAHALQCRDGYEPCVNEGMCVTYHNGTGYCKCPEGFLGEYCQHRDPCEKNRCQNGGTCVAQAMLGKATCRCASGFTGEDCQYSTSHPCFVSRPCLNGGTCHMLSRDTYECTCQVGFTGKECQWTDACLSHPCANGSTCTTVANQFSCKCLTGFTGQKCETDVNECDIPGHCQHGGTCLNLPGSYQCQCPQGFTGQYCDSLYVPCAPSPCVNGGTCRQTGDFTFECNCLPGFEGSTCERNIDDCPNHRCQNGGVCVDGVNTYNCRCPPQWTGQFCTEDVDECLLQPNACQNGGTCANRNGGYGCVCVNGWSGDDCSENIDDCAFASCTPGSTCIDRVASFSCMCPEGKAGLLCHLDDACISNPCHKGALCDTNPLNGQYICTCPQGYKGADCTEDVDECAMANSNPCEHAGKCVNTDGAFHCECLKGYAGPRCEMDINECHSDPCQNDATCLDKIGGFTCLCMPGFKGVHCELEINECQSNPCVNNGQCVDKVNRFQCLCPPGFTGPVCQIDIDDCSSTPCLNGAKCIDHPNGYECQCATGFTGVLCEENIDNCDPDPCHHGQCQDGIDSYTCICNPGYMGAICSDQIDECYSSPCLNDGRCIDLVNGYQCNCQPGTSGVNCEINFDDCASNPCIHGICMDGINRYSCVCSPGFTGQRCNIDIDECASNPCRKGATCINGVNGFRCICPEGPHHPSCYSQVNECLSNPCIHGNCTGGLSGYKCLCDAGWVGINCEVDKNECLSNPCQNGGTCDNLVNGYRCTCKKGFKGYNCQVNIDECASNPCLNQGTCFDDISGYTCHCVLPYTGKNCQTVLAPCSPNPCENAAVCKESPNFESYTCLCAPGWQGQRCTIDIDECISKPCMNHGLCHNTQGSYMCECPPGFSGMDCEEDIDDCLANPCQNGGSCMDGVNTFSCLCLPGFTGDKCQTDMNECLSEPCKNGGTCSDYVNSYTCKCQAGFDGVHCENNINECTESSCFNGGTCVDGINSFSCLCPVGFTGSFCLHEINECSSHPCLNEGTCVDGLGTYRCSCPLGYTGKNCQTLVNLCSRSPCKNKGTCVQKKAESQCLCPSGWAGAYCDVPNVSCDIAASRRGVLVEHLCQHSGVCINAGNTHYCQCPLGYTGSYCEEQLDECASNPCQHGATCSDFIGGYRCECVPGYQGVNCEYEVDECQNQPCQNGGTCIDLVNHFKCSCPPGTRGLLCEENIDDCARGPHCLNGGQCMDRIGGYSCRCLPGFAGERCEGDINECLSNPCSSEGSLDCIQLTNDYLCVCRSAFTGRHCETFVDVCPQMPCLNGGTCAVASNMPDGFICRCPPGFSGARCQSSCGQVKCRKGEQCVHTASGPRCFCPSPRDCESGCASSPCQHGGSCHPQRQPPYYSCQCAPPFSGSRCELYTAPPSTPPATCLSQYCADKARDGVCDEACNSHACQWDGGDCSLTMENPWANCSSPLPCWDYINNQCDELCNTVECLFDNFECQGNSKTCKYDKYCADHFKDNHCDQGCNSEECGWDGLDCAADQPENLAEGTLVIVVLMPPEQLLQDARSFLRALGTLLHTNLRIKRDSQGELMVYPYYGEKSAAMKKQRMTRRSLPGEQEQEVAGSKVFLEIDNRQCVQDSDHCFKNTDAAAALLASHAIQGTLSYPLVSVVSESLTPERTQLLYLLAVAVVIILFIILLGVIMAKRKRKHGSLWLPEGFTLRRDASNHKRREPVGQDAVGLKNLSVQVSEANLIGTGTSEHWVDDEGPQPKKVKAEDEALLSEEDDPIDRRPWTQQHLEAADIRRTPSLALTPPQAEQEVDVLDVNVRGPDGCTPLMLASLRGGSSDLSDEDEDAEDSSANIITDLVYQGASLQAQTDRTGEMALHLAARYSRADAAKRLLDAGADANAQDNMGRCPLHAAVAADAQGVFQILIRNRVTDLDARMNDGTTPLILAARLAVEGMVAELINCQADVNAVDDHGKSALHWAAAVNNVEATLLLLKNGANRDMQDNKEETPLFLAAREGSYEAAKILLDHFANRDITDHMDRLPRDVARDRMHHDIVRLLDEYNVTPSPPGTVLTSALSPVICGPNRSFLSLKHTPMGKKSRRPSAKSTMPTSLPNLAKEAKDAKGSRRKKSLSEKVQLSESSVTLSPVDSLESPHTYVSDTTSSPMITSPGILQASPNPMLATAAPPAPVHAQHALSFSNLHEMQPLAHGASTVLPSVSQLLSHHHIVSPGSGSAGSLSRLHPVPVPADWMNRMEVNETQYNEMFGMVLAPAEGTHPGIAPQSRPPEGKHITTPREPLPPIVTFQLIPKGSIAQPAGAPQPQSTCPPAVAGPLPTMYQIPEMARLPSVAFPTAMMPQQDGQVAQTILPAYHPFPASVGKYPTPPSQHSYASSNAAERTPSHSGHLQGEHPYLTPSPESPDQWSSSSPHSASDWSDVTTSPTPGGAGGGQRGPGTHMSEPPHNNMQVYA
- assay_explanation: Notch2 binders on small-molecule microarrays, primary screen, biochemical, small-molecule microarray, 635 nm fluorescence, stem cell growth factors (AID 1073)
- measurement_parameters: Notch2 binding, higher = more signal
Parameter threshold = -0.1. Response is Criterion met when composite z-score meets or exceeds it, else Criterion not met.

1) CC(C)(C)OC(=O)CC[C@]1(C(=O)NCc2ccccc2)N=C(c2ccc(OCCCO)cc2)O[C@H]1c1ccccc1; Criterion met

INPUT: Is composite z-score at least -0.1? Consider CO[C@H]([C@@H](C)[C@H](OC)c1ccccc1)[C@H](C)[C@@H](OC)[C@H](C)C(C)=O
OUTPUT: Criterion not met

INPUT: Is composite z-score at least -0.1? Consider CC(=O)OC[C@H]1O[C@H](CCON=C(C)CCC(=O)OC[C@H]2O[C@H](C#Cc3ccccc3)C=C[C@@H]2Oc2ccc(C)cc2)C=C[C@@H]1OC(C)=O
OUTPUT: Criterion not met

INPUT: Is composite z-score at least -0.1? Consider C=CCN1C(=O)[C@]2(O[C@H](CCn3cc(CCO)nn3)[C@@H]([Si](C)(C)c3ccc(OC)cc3)[C@@H]2C)c2cc(N3CCOC3=O)ccc21
OUTPUT: Criterion not met

INPUT: Is composite z-score at least -0.1? Consider CC(C)=C1C(=O)C(c2ccccc2)=C2CN3C(=O)N(CCc4ccccc4)C(=O)[C@]3(Cc3ccc(F)cc3)[C@H]21
OUTPUT: Criterion not met

INPUT: Is composite z-score at least -0.1? Consider C[C@@H]1C=CCC(=O)OC[C@H](C)C(=O)OC[C@H]2O[C@H]1C=C[C@H]2O
OUTPUT: Criterion met

INPUT: Is composite z-score at least -0.1? Consider CCOc1ccc(N2C(=O)/C(=C/C=C/c3ccccc3OC)S(=O)(=O)C2c2cccc([N+](=O)[O-])c2)cc1 (stereo not drawn)
OUTPUT: Criterion met

INPUT: Is composite z-score at least -0.1? Consider COCCOC(=O)N1C(=O)[C@@]2(c3cc(C#Cc4ccc(OC)cc4)ccc31)[C@H](c1ccc(O)cc1)N1[C@H](c3ccccc3)[C@H](c3ccccc3)OC(=O)[C@H]1[C@@H]2C(N)=O
OUTPUT: Criterion met

----------
- test_system: Homeobox protein Hox-A13 (Mus musculus) (UniProt Q62424)
- Sequence (Q62424 whole entry, looked up): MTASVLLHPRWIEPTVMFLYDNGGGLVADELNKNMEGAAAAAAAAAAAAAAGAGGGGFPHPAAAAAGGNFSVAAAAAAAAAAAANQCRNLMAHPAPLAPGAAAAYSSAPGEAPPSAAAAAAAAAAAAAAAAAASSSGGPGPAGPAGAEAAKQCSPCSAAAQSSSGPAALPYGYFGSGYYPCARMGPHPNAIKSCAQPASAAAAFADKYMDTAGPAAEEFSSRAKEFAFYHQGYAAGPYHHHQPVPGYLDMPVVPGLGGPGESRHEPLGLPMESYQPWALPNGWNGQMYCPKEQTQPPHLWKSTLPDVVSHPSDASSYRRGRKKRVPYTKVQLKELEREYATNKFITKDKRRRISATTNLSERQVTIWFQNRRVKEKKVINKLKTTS
- assay_explanation: inhibitors of HoxA13-DNA binding, primary screen, biochemical, fluorescence polarization, labeled oligonucleotide (AID 1185)
- measurement_parameters: 15 min, higher = more signal, called active from +8 up or from −8 down
assay_metric: z-score
Lab note: jot down the number only; don't add units.

Consider the worked cases shown below.
1) CC(C)c1ccc(NN2C(C(O)c3ccc4c(c3)OCO4)C=CC3C(=O)N(c4ccccc4)C(=O)C32)cc1 (stereo not drawn); -1.45
2) CCN(CC)c1ccc(N2CC=CC34O[C@@H]5/C=C\CCC(C)OC(=O)C5[C@H]3C(=O)N(CCCO)[C@@H]4C2=O)cc1 (stereo partly drawn); -6.38
3) O=C1[C@H]2[C@H]3[C@H](O)[C@H](O)CC(=NO[C@@H]4O[C@H](CO)[C@@H](O)[C@H](O)[C@H]4O)[C@@H]3CC[C@H]2C(=O)N1Cc1ccc2c(c1)OCO2; -2.63

Record CCCCCCc1nc(CCCc2cc3c(c(CCCCCC)n2)[Si](C(C)C)(C(C)C)O[C@H]3c2ccccc2)cc2c1[Si](C(C)C)(C(C)C)O[C@H]2c1ccccc1 . Reported z-score: -2.79

Record C=C(/C(=C/C[C@H](OC(=O)c1ccncc1)c1ccc(OCCO)cc1)c1cnc2ccccc2c1)C(C)C . Reported z-score: -3.29
